# credit: patent US8946266B2

# System: Aβ42
# protocol-description: γ-secretase-modulating activity, Method 2: Aβ42 Alphalisa in supernatant of SKNBE2 cells carrying APP 695-wild type (Table 3b)
# Assay type: cell-based
# stated-conditions: overnight
Just so you know, the groups by IC50 go like this: A: < 40 nM; B: ≥ 40 nM and < 700 nM; C: ≥ 700 nM

>>> print(df.to_string())
                                    compound  measured_on  category_label
 0  COc1cc(-c2nc(-c3ccccc3C(F)(F)F)n(C(C)C)n2)ccc1-n1cnc(C)c1         Aβ42               B
 1  Cc1cn(-c2ccc(-c3nc(Nc4cc(C(F)(F)F)ccc4F)n(C)n3)cc2OC(F)(F)F)cn1         Aβ42               C
 2  COc1cc(-c2nc(Nc3ccc(C#N)cc3F)n(C)n2)ccc1-n1cnc(C)c1         Aβ42               B
 3  COc1nc(-c2nc(Nc3ccccc3C(F)(F)F)n(C)n2)ccc1-n1cnc(C)c1         Aβ42               B
 4  COc1cc(-c2nc(Nc3cc(F)c(F)c(F)c3)nn2C)ccc1-n1cnc(C)c1         Aβ42               C
 5  COc1nc(-c2nc(Nc3cc(C(F)(F)F)ccc3Cl)n(C)n2)ccc1-n1cnc(C)c1         Aβ42               A
 6  COc1cc(-c2nc(N3C[C@@H](C)O[C@@H](C)C3)nn2C)ccc1-n1cnc(C)c1         Aβ42               C
 7  COc1cc(-c2nc3n(n2)CCCCC3c2ccccc2C(F)(F)F)ccc1-n1cnc(C)c1 (stereo not shown)         Aβ42               B
 8  COc1cc(-c2ncn(-c3cccc(C(F)(F)F)c3)n2)ccc1-n1cnc(C)c1         Aβ42               C
 9  COc1cc(-c2nc(Nc3cc(Cl)ccc3Cl)n(C)n2)ccc1-n1cnc(C)c1         Aβ42               A
10  COc1cc(-c2nc(Nc3cc(Cl)ccc3OC(F)(F)F)n(C)n2)ccc1-n1cnc(C)c1         Aβ42               A
11  COc1cc(-c2nc(Nc3cc(C(F)(F)F)cc(F)c3F)n(C)n2)ccc1-n1cnc(C)c1         Aβ42               A
12  COc1cc(-c2nc(-c3cccc(C(F)(F)F)c3)n(C)n2)ccc1-n1cnc(C)c1         Aβ42               B
13  COc1cc(-c2nc(Nc3ccc(F)cc3C#N)n(C)n2)ccc1-n1cnc(C)c1         Aβ42               C
14  COc1nc(-c2nc3n(n2)CCCC3c2ccc(F)cc2C)ccc1-n1cnc(C)c1 (stereo not shown)         Aβ42               B

###

Below, each entry is listed with its recorded IC50.
# Tested on: Aβ42
# protocol-description: γ-secretase-modulating activity, Method 2: Aβ42 Alphalisa in supernatant of SKNBE2 cells carrying APP 695-wild type (Table 3b)
# Type: cell-based
# stated-conditions: overnight
measured-property: IC50 (nM)

>>> print(df.to_string())
                                    compound  test_result
 0  Cc1cn(-c2ccc(-c3nc(Nc4cc(C(F)(F)F)ccc4F)n(C)n3)cc2)cn1          123
 1  CCCc1[nH]c(-c2ccc(-n3cnc(C)c3)c(OC)c2)nc1-c1ccccc1          170
 2  COc1cc(-c2nc(C(C)(C)O)n(C(C)c3ccc(F)cc3)n2)ccc1-n1cnc(C)c1 (racemic)          871
 3  COc1cc(-c2nc3n(n2)CCCC3c2ccccc2F)ccc1-n1cnc(C)c1 (stereo not shown)          148
 4  CCOc1ccc(F)c(Nc2nc(-c3ccc(-n4cnc(C)c4)c(OC)c3)nn2C)c1           22
 5  COc1cc(-c2nc(Nc3cccc(Cl)c3C)n(C)n2)ccc1-n1cnc(C)c1           25
 6  COc1cc(-c2nc(N3CCC(c4cccc(C(F)(F)F)c4)C3)n(C(C)C)n2)ccc1-n1cnc(C)c1 (racemic)          251
 7  COc1cc(-c2nc3n(n2)CCC(C)C3c2ccc(F)cc2)ccc1-n1cnc(C)c1 (stereo not shown)          123
 8  COc1cc(-c2nc(-c3cccc(C(F)(F)F)c3)nn2C)ccc1-n1cnc(C)c1         4270
 9  COc1cc(-c2n[nH]c(C(CCCCCl)c3ccccc3C(F)(F)F)n2)ccc1-n1cnc(C)c1 (stereo not shown)          309
10  COc1cc(-c2nc(-c3ccccc3C(F)(F)F)n(C)n2)ccc1-n1cnc(C)c1          158
11  Cc1cn(-c2ccc(-c3nc(Nc4cccc(C(F)(F)F)c4)n(C)n3)cc2)cn1          166
12  COc1cccc(-c2n[nH]c(-c3ccc(-n4cnc(C)c4)c(OC)c3)n2)c1          234
13  COc1cc(-c2nc(Nc3cc(F)c(F)cc3I)n(C)n2)ccc1-n1cnc(C)c1          123
14  COc1cc(-c2nc3n(n2)CCC[C@H]3c2ccc(F)cc2C)ccc1-n1cnc(C)c1.Cl           29
15  COc1cc(-c2nc(-c3ccccc3)c(C)[nH]2)ccc1-n1ncnc1C         8130
